target: cyclin D1/cdk 4 enzyme (Homo sapiens); construct: made in house; host or cells: Sf9 insect cells, recombinant baculovirus; test: CDK4 ELISA kinase assay (phospho-Rb ser 795 detection); type: biochemical; details: In Vitro Enzyme Assays, 200 μM ATP, read-out: CDK4 IC50
Sequence (P11802 whole entry, species assumed): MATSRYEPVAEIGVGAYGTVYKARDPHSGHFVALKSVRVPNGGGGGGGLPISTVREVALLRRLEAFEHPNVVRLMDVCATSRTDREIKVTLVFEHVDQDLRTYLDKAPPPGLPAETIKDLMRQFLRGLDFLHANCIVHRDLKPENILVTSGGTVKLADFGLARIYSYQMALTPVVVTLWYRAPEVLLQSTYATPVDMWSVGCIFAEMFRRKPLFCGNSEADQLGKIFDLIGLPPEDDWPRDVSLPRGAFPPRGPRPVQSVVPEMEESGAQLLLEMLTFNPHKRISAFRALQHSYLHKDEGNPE
Sequence (P24385 whole entry partner, species assumed): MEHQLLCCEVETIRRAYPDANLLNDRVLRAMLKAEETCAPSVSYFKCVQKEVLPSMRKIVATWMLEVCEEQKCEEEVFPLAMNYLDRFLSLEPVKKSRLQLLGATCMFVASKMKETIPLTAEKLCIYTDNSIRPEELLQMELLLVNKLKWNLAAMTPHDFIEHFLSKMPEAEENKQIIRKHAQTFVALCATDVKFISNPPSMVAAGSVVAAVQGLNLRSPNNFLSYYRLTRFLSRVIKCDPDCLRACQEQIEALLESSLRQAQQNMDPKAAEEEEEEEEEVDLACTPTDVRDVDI
pIC50: −log10 of the molar value.
value-type: pIC50

CCCOc1ccc(CN/C=C2\C(=O)NC(=O)c3ccc(Br)cc32)cc1O
6.46

[P] O=C1NC(=O)c2ccc(I)cc2/C1=C/Nc1ccc(CN2CCC[C@@H]2CO)cc1
[Q] CN1Cc2ccc(N/C=C3\C(=O)NC(=O)c4ccc(Br)cc43)cc2C1
[R] CN1CCN(c2ccc(N/C=C3\C(=O)NC(=O)c4ccc(-c5ccc(F)cc5)cc43)cc2F)CC1
[S] CN1CCN(NC(=O)Nc2ccc(N/C=C3\C(=O)NC(=O)c4ccc(Br)cc43)cc2)CC1
[T] O=C1NC(=O)c2ccc(Br)cc2C1=CNc1ccc(-c2c[nH]cn2)cc1
Please rank these compounds by pIC50 in descending order. // format: requested-order list of labels R, P, Q, S, T
(R: 6.49, P: 6.29, Q: 5.92, S: 4.86, T: 4.36)

[I] CCC1CCCN1Cc1ccc(N/C=C2\C(=O)NC(=O)c3ccc(I)cc32)cc1 (centres unmarked)
[II] C[C@@H]1CN(c2ccc(N/C=C3\C(=O)NC(=O)c4ccc(I)cc43)cc2)C[C@H](C)N1C
Form field 'greater pIC50' accepts I or II ; which applies? Could you answer with the label of the item you picked? I

====

target: cyclin E/CDK2 enzyme (Homo sapiens, UniProt P24941); construct: made in house; host or cells: Sf9 insect cells, recombinant baculovirus; assay: CDK2 ELISA kinase assay (phospho-Rb ser 795 detection); type: biochemical; conditions: In Vitro Enzyme Assays, read-out: CDK2 IC50
Below, each of the molecules is paired with its reported IC50 value.

CCN1CCN(c2ccc(N/C=C3\C(=O)NC(=O)c4ccc(-c5ccoc5)cc43)cn2)CC1 [Example 416]
> 50 µM

Name the recorded IC50 of the molecule listed here: O=C1NC(=O)c2ccc(I)cc2/C1=C/Nc1ccc(N2CCC(CO)CC2)cc1 [Example 434] > 50 µM

Name the recorded IC50 of the molecule listed here: COC[C@H]1CCCN1Cc1ccc(N/C=C2\C(=O)NC(=O)c3ccc(-c4ccsc4)cc32)cc1 [Example 331] > 50 µM

====

Structures can show the parent of a compound that is named as a salt.
Below, each of the compounds is paired with its reported melting point value.

Consider the following illustrative entries.
COc1ccc(-c2ccc3c(c2)/C(=C/Nc2ccc(N4CCN(C)CC4)cc2)C(=O)NC3=O)cc1 (hydrate or solvate)
224 to 225 °C
O=C1NC(=O)c2ccc(I)cc2/C1=C/Nc1ccc(CN2CCC(O)CC2)cc1
255 to 256 °C
COc1ccc(CN/C=C2\C(=O)NC(=O)c3ccc(-c4cccc(F)c4)cc32)cc1O (as salt: sodium)
204 to 205 °C
CCCOc1ccc(CN/C=C2\C(=O)N(O)C(=O)c3ccccc32)cc1O
176 to 178 °C
C[C@@H]1CN(c2ccc(N/C=C3\C(=O)NC(=O)c4ccc(-c5ccoc5)cc43)cc2)C[C@H](C)N1C(=O)CN(C)C
191 to 192 °C

We next turn to a different compound, shown below.
Name the recorded melting point of the compound listed here: O=C1NC(=O)c2ccc(-c3ccc(CN4CCCCC4)cc3)cc2C1=CNc1ccc(CN2CCCCC2)cc1 159 to 160 °C

====

test system: HCT-116; experiment: Cytotoxicity assay (SRB), HCT-116; type: cell-based; details: Homo sapiens, HCT-116, 72 h, HCT116 cells, 3 days, SRB; read-out: In Vitro Cellular Activity IC50 HCT116
Below, each of the molecules is paired with its reported pIC50 value.
Entry type: numeric. Quantity: pIC50, the -log10 of concentration in molar units.

Consider the following illustrative entries.
O=C1NC(=O)c2ccc(Br)cc2/C1=C/Nc1ccc(N2CCC(N3CCCC3)CC2)c(F)c1 [Example 405]
5.77
O=C1NC(=O)c2ccc(-c3cccs3)cc2/C1=C/Nc1ccc(CN2CCC[C@H]2CO)cc1 (stereo in doubt) [Example 438]
5.80

Name the recorded pIC50 of the molecule listed here: CN(C)Cc1ccc(C=Cc2ccc3c(c2)C(=CNCc2ccc(O)c(O)c2)C(=O)NC3=O)cc1 [Example 736] 4.69

Name the recorded pIC50 of the molecule listed here: O=C1NC(=O)c2ccc(I)cc2/C1=C/NCc1ccc(-n2cccc2)c(O)c1 [Example 514] 5.98

Name the recorded pIC50 of the molecule listed here: O=C1NC(=O)c2ccc(I)cc2/C1=C/Nc1ccc(N2CCC(C(=O)O)CC2)cc1 [Example 431] 5.21

====

target: cyclin D1/cdk 4 enzyme (Homo sapiens); construct: made in house; host or cells: Sf9 insect cells, recombinant baculovirus; assay: CDK4 ELISA kinase assay (phospho-Rb ser 795 detection); format: biochemical; conditions: In Vitro Enzyme Assays, 200 μM ATP, read-out: CDK4 IC50
pIC50: −log10 of the molar value.
value-type: pIC50

C[C@@H]1CN(c2ccc(N/C=C3\C(=O)NC(=O)c4ccc(-c5ccc(F)cc5)cc43)cc2)C[C@H](C)N1
6.36

[a] CN(C)CCCN1CCC(c2ccc(N/C=C3\C(=O)NC(=O)c4ccc(I)cc43)cc2)CC1
[b] CC(C)C(=O)Nc1ccc(CN/C=C2\C(=O)NC(=O)c3ccc(I)cc32)cc1O
Form field 'greater pIC50' accepts a or b ; which applies? Could you answer with the label of the item you picked? b
(b: 7.70, a: 6.44)

[I] O=C1NC(=O)c2ccccc2/C1=C/Nc1ccc(CN2CCCCC2)cc1
[II] CCN1CCN(c2ccc(N/C=C3\C(=O)NC(=O)c4ccc(I)cc43)cn2)CC1
[III] COc1coc(CNC=C2C(=O)NC(=O)c3ccc(Br)cc32)cc1=O
[IV] COc1ccc(CN/C=C2\C(=O)NC(=O)c3ccc(F)cc32)cc1O
[V] O=C1NC(=O)c2ccc(Br)cc2/C1=C/Nc1ccc(CN2CCOCC2)cc1
Please rank these molecules by pIC50 in descending order. // format: requested-order list of labels IV, II, III, V, I

====

tested on: MCF-7; assay: Cytotoxicity assay (SRB), MCF-7; type: cell-based; settings: Homo sapiens, MCF7, 72 h, MCF-7 cells, 3 days, SRB; read-out: In Vitro Cellular Activity IC50 MCF-7
value-type: IC50

Consider the following illustrative entries.
NS(=O)(=O)c1ccc(CNC=C2C(=O)NC(=O)c3ccc(-c4ccc[nH]4)cc32)cc1
> 50 µM
CN1CCN(c2ccc(NC=C3C(=O)NC(=O)c4ccc(-c5cccc(C=CC(=O)O)c5)cc43)cc2)CC1
> 50 µM

We next turn to a different compound, shown below.
Name the recorded IC50 of the compound listed here: NS(=O)(=O)c1ccc(CNC=C2C(=O)NC(=O)c3ccc(-c4cc5ccccc5o4)cc32)cc1 > 50 µM

====

biological target: cyclin D1/cdk 4 enzyme (Homo sapiens); construct: made in house; host or cells: Sf9 insect cells, recombinant baculovirus; assay: CDK4 ELISA kinase assay (phospho-Rb ser 795 detection); type: biochemical; conditions: In Vitro Enzyme Assays, 200 μM ATP, read-out: CDK4 IC50
value-type: IC50 (µM)

O=C1NC(=O)c2ccc(-c3ccc(Cl)cc3)cc2/C1=C/Nc1ccc(CN2CCCCC2)cc1
19.4
Nc1ccc(CN/C=C2\C(=O)NC(=O)c3ccc(Br)cc32)cc1O
0.08
CN1CCN(c2ccc(N/C=C3\C(=O)NC(=O)c4ccc(C#Cc5ccsc5)cc43)cc2)CC1
2.3

[I] COC(=O)[C@H]1CCCN1Cc1ccc(NC=C2C(=O)NC(=O)c3ccc(I)cc32)cc1
[II] C[C@@H]1CN(c2ccc(N/C=C3\C(=O)NC(=O)c4ccc(I)cc43)cc2F)C[C@H](C)N1
For the pair I and II , which entry has the numerically smaller recorded IC50? Could you answer with the label of the item you picked? II

====

molecular target: cyclin E/CDK2 enzyme (Homo sapiens); construct: made in house; host or cells: Sf9 insect cells, recombinant baculovirus; experiment: CDK2 ELISA kinase assay (phospho-Rb ser 795 detection); assay type: biochemical; conditions: In Vitro Enzyme Assays, read-out: CDK2 IC50
pIC50: −log10 of the molar value.
value-type: pIC50

Quote pIC50 with test system cyclin E/CDK2 enzyme (Homo sapiens) for O=C1NC(=O)c2ccc(-c3ccc(C(F)(F)F)cc3)cc2/C1=C/Nc1ccc(CN2CCCC2)cc1 [Example 282] < 4.30

Quote pIC50 with test system cyclin E/CDK2 enzyme (Homo sapiens) for COC[C@@H]1CCCN1Cc1ccc(N/C=C2\C(=O)NC(=O)c3ccc(-c4ccc(F)cc4)cc32)cc1 [Example 299] < 4.30

Quote pIC50 with test system cyclin E/CDK2 enzyme (Homo sapiens) for O=C1NC(=O)c2ccc(Nc3ccccc3)cc2/C1=C/Nc1ccc(CN2CCCCC2)cc1 [Example 128] < 4.30

Where do the numbers come from? From patent US7713994B2.
